assay: self-splicing fitness, log relative to wild type (ln ratio); higher = more splicing; Tetrahymena group I intron in knt gene, E. coli kanamycin selection, DiMSum; sequences stand for … in CUCUCU…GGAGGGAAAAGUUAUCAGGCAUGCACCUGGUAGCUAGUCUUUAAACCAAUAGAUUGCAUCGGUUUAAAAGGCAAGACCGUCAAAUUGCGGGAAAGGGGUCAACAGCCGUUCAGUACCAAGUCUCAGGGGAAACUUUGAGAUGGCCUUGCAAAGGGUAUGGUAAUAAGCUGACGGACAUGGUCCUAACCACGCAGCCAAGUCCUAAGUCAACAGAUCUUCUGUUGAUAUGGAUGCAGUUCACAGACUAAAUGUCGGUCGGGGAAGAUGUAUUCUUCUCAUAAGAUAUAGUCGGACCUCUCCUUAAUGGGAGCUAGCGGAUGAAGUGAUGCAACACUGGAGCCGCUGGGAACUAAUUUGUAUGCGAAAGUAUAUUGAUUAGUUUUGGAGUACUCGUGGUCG; settings: 30 °C;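 also: selection with 25 µg/mL kanamycin versus none on LB agar overnight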
Parameter Measured: self-splicing fitness (ln)
Format: numeric value only, no unit, no commentary.

# Seq Text, Recorded Value
rows = [
    ("UCGAAGCAAUAUUACGAAGA", -2.08),
    ("GGUAAGCAAUAUUACGUGAA", -1.52),
    ("AGCCAGCAAUAUUACGAGGC", -3.6),
    ("GGGCAGCAAUAUUACGUCCC", -2.38),
    ("AUGAAGCAAUAUUACGGCCC", -0.0924),
]

# return recorded self-splicing fitness (ln) for input `CAUCAGCAAUAUUACGUAGU`
-1.66

# return recorded self-splicing fitness (ln) for input `ACCCAGCAAUAUUACGGGCG`
-0.609

# return recorded self-splicing fitness (ln) for input `AGUAAGCAAUAUUACGGGAG`
-3.4

# return recorded self-splicing fitness (ln) for input `AAGAAGCAAUAUUACGUGAU`
-1.96

---

assay: self-splicing fitness, log relative to wild type (ln ratio); higher = more splicing; Tetrahymena group I intron in knt gene, E. coli kanamycin selection, DiMSum; sequences stand for … in CUCUCU…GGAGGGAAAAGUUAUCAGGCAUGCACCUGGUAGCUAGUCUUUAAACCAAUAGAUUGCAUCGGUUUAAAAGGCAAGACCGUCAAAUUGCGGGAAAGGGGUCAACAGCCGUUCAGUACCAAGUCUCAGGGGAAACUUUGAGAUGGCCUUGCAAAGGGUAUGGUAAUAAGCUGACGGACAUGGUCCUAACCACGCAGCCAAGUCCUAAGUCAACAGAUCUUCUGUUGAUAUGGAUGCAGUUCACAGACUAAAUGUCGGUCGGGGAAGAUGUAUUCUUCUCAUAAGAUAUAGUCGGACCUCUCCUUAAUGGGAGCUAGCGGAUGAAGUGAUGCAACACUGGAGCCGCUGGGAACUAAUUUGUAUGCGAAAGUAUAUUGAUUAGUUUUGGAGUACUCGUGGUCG; settings: 37 °C
Kindly return True if reported self-splicing fitness (ln) is no lower than -1; return False if it is lower.

Observe how each entry below is paired with its result.
# Seq Text, Label Value
data = [
    ("UCUUAGCAAUAUUACGGAUC", "False"),
    ("UGCUAGCAAUAUUACGGGCG", "False"),
    ("ACGCAGCAAUAUUACGAAUC", "False"),
    ("GUCGAGCAAUAUUACGUGAA", "False"),
    ("AAUCAGCAAUAUUACGCACC", "True"),
]

Does the reported self-splicing fitness (ln) for `ACAUAGCAAUAUUACGGUGU` fall at or above the -1 mark?
False

Does the reported self-splicing fitness (ln) for `CAGGAGCAAUAUUACGUGGA` fall at or above the -1 mark?
False

Does the reported self-splicing fitness (ln) for `CACUAGCAAUAUUACGUUCG` fall at or above the -1 mark?
True

Does the reported self-splicing fitness (ln) for `AUGAAGCAAUAUUACGAGAA` fall at or above the -1 mark?
False

Does the reported self-splicing fitness (ln) for `UAUUAGCAAUAUUACGGAUC` fall at or above the -1 mark?
True

Does the reported self-splicing fitness (ln) for `CCAAAGCAAUAUUACGGGGU` fall at or above the -1 mark?
False

Does the reported self-splicing fitness (ln) for `GACCAGCAAUAUUACGUGUG` fall at or above the -1 mark?
True
